molecular target: cynomolgus monkey complement component C3 (cynomolgus monkey, UniProt P01024 24-1663 (human entry)); assay: cell-based or functional assay
Sequence (P01024 other isoform, or with tags, fused parts or gaps): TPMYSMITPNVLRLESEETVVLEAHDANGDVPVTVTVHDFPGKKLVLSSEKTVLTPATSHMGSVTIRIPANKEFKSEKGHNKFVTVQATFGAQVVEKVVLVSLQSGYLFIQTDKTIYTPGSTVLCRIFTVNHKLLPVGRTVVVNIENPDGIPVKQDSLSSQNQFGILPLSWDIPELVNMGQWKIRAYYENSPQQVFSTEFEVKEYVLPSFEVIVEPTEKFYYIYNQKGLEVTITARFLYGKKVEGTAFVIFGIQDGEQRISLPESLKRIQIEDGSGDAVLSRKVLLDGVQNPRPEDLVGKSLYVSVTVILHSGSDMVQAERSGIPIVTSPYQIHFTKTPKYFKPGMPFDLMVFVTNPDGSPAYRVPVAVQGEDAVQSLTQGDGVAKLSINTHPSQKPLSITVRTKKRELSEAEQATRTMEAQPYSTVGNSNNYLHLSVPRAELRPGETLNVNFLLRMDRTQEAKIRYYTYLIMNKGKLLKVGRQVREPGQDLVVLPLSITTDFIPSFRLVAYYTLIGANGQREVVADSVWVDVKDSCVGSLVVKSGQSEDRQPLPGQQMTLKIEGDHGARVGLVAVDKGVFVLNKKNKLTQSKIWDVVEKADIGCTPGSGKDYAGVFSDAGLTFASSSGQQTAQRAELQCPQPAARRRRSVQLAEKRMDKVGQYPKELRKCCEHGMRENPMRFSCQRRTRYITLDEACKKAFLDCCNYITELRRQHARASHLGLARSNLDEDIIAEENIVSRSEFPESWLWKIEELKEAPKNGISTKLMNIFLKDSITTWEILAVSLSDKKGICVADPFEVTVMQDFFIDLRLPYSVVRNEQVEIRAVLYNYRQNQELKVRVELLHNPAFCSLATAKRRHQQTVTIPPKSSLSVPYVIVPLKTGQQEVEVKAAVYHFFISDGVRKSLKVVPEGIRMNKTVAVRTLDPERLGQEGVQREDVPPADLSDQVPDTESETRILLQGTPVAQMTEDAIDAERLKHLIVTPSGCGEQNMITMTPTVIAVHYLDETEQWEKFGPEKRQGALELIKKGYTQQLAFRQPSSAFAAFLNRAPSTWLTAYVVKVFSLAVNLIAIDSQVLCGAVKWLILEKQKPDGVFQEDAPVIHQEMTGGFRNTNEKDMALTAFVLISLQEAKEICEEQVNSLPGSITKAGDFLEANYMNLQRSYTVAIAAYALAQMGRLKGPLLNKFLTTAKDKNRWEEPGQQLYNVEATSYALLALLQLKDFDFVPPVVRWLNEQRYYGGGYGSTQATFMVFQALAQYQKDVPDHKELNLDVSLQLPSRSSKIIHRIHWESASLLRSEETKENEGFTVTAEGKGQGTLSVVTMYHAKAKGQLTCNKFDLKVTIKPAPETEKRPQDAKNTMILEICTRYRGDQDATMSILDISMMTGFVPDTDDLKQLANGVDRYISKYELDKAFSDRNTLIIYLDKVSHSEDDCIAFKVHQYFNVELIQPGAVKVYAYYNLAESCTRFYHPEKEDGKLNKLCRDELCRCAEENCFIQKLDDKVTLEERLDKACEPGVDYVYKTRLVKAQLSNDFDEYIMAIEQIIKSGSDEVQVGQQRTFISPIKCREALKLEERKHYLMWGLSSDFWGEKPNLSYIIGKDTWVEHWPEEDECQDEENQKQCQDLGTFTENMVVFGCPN
observedProperty: Hemolytic Assay IC50, Cyno AP

binder: antibody 27A8 (antibody, V domains shown) VH: QVQLLQPGAEFVKPGASVKLSCKASGYTFTDYWINWVKQRPGQGLEWIGNIYPGSTSANYNEKFKSKATLTIDTSSITAYMQLSSLTSDDSAVYYCARYGYDSWFAYWGQGTLVTVSA VL: DVVLTQTPLSLPVNIGDQASISCKSTKSLLNSDGFTYLDWFLQKPGQSPHLLIYLVSNRFSGIPDRFSGSGSETDFTLKISRVEAEDLGVYYCFQSNYLPLTFGSGTKLEIK
Hemolytic Assay IC50, Cyno AP: 9.6 nM

binder: antibody 62B11 (antibody, V domains shown, Mouse hybridoma antibody) VH: EVKLVESGGGLVQPGGSLKLSCAASGFTFSSYTMSWVRQTPEKRLEWVAYISSGGGTTYYPDTVKGRFTVSRDNAKNTLYLQMSSLRSEDTAMYSCARRYYRGSSLWYFDVWGAGTTVTVSS VL: DIVMTQSPSSLTVTAGEKVTMSCKSSQSLFNSGSQKNFLTWYQQRPGQPPKLLIYWASTRESGVPDRFTGSGSGTDFTLTISSVQAEDLAVYYCQNDYSYPLTFGAGTKLELK
Hemolytic Assay IC50, Cyno AP: ~11 nM

## Task // query Hemolytic Assay IC50, Cyno AP value for entry antibody 38F5 (antibody, V domains shown, Mouse hybridoma antibody) VH: EVMLVESGGALVKPGGSLKLSCTASGFTFSNYAMSWVRQTPEKRLEWVAQTISSGGRYTYYPDSVKGRFTISRDNARNTLYLQMSSLRSEDTAMYYCVRRYYGNSYWYFDVWGAGTTVTVSS VL: DIVMTQSPSSLSVSAGEKVTMNCKSSQSLLNSGNQKHYLTWYQQKPGQPPKLLIYGASTRGSGVPDRFTGSGSGTDFTLTISSVQAEDLAVYYCQNDHSYPYTFGGGTKLEIK
## Result 12.9 nM

Origin of values: patent US20190322730A1
